- tested_system: TACE enzyme (Homo sapiens)
- Sequence (P78536 215-824 limits assumed): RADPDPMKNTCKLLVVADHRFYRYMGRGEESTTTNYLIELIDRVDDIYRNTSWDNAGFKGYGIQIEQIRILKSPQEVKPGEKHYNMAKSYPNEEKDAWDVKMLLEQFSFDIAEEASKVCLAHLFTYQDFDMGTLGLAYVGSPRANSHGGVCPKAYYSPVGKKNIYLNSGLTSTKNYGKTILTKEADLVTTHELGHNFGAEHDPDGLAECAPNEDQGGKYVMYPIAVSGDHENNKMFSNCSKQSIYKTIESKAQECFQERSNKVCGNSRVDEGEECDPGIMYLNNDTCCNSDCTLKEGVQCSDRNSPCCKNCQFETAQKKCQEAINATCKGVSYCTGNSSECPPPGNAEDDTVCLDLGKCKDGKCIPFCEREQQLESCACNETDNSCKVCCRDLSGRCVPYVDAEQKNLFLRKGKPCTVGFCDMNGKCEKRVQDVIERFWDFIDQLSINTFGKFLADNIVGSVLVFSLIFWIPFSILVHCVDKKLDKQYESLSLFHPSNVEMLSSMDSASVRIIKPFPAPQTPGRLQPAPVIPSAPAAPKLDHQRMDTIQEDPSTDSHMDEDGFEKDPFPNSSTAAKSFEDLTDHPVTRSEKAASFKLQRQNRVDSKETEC
- assay_remarks: Enzymatic test of TACE inhibition
- Type: biochemical
- assay_setup: at 10 μM
# % TACE inhibition at 10 μM per entry
Answer with a number only, understood to be in %.

Example entries begin here.
Form field % TACE inhibition at 10 μM, entry O=C(NC[C@@H](C(=O)NO)N1CCCCC1)c1ccc(OCc2ccnc(-c3ccccc3)c2)cc1 [Example 4] : 100

Form field % TACE inhibition at 10 μM, entry O=C(NC[C@@H](C(=O)NO)N1CCCCC1)c1ccc(OCc2ccncc2)cc1 [Example 5] : 93

Form field % TACE inhibition at 10 μM, entry Cc1ccc(COc2ccc(C(=O)NC[C@@H](C(=O)NO)N3CCCCC3)cc2)c2ccccc12 [Example 7] : 90

Form field % TACE inhibition at 10 μM, entry CCN(CC)[C@@H](CNC(=O)c1ccc(OCc2cc(C)nc3ccccc23)cc1)C(=O)NO [Example 11] : 91

Form field % TACE inhibition at 10 μM, entry Cc1cc(COc2ccc(C(=O)NC[C@@H](C(=O)NO)N3CCCCC3)cc2)c2ccccc2n1 [Example 2] : 100

More entries:
Form field % TACE inhibition at 10 μM, entry O=C(NC[C@@H](C(=O)NO)N1CCCCC1)c1ccc(OCc2cc(Cl)nc(Cl)c2)cc1 [Example 3] : 97

---

- tested_system: UniProtKB P78536
- assay_remarks: Enzymatic test of TACE inhibition
- Format: biochemical
- assay_setup: fluorescent substrate 40 μM
measurement_type: pIC50
In textbook form, pIC50 equals minus log to base ten of the concentration in mol/L.

Form field pIC50, entry CCN(CC)[C@@H](CNC(=O)c1ccc(OCc2cc(C)nc3ccccc23)cc1)C(=O)NO [Example 11] : 6.63

Form field pIC50, entry O=C(NC[C@@H](C(=O)NO)N1CCCCC1)c1ccc(OCc2cc(Cl)nc(Cl)c2)cc1 [Example 3] : 6.59

Form field pIC50, entry Cc1ccc(COc2ccc(C(=O)NC[C@@H](C(=O)NO)N3CCCCC3)cc2)c2ccccc12 [Example 7] : 7.04

More entries:
Form field pIC50, entry O=C(NC[C@@H](C(=O)NO)N1CCCCC1)c1ccc(OCc2ccncc2)cc1 [Example 5] : 6.97

---

- tested_system: ADAM10 (Homo sapiens (Human))
- Sequence (O14672 214-748, species assumed): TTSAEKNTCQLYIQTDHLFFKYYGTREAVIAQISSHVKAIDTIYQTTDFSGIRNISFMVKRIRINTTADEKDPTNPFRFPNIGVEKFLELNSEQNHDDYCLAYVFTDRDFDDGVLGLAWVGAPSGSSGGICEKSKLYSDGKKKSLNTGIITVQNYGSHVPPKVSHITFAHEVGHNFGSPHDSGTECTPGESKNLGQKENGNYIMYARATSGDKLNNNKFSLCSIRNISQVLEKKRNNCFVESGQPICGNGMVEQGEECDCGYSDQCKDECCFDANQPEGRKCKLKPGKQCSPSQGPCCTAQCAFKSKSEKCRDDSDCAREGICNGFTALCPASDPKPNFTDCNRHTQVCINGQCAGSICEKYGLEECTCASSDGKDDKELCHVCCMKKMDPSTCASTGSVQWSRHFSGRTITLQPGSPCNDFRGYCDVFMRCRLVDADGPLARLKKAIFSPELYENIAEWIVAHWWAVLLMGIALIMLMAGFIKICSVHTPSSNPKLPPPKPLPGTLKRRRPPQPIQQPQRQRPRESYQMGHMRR
- assay_remarks: Selectivity test ADAM10
- Assay type: biochemical
measurement_type: IC50 (µM)
Answer with a number only, understood to be in µM.

Item "Cc1cc(COc2ccc(C(=O)NC[C@@H](C(=O)NO)N3CCCCC3)cc2)c2ccccc2n1" ; assay system ADAM10 (Homo sapiens (Human)); IC50 reported as 6.41

---

- tested_system: TACE enzyme (Homo sapiens)
- assay_remarks: Enzymatic test of TACE inhibition
- Assay type: biochemical
- assay_setup: at 10 μM
# % TACE inhibition at 10 μM per entry
Answer with a number only, understood to be in %.

Example entries begin here.
Form field % TACE inhibition at 10 μM, entry "CC#CCOc1ccc(C(=O)NC[C@@H](C(=O)NO)N2CCCCC2)cc1" : 96

Form field % TACE inhibition at 10 μM, entry "O=C(NC[C@@H](C(=O)NO)N1CCCCC1)c1ccc(OCc2ccnc(Br)c2)cc1" : 91

Form field % TACE inhibition at 10 μM, entry "O=C(NC[C@@H](C(=O)NO)N1CCOCC1)c1ccc(OCc2ccncc2)cc1" : 92

Now consider the entry below.
Form field % TACE inhibition at 10 μM, entry "O=C(NC[C@@H](C(=O)NO)N1CCOCC1)c1ccc(OCc2ccnc(-c3ccccc3C(F)(F)F)c2)cc1" : 90

---

- tested_system: UniProtKB P78536
- assay_remarks: Enzymatic test of TACE inhibition
- Format: biochemical
- assay_setup: fluorescent substrate 40 μM
measurement_type: pIC50
In textbook form, pIC50 equals minus log to base ten of the concentration in mol/L.

Example entries begin here.
Item "Cc1cc(COc2ccc(C(=O)NC[C@@H](C(=O)NO)N3CCCCC3)cc2)c2ccccc2n1" ; assay system UniProtKB P78536; pIC50 reported as 7.15

Item "O=C(NC[C@@H](C(=O)NO)N1CCOCC1)c1ccc(OCc2ccnc(-c3ccccc3C(F)(F)F)c2)cc1" ; assay system UniProtKB P78536; pIC50 reported as 6.05

Item "O=C(NC[C@@H](C(=O)NO)N1CCOCC1)c1ccc(OCc2ccncc2)cc1" ; assay system UniProtKB P78536; pIC50 reported as 6.37

Now consider the entry below.
Item "CC#CCOc1ccc(C(=O)NC[C@@H](C(=O)NO)N2CCCCC2)cc1" ; assay system UniProtKB P78536; pIC50 reported as 8.05
